Some variants, each annotated with its measured protein stability index.
B1: SNAP91 (parent)
chain: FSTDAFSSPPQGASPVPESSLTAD

Variants of: B1
Experiment: protein stability index of a GFP-peptide fusion (GPS, HEK-293T) (PSI 1-6); higher = more stable;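 also: lentivirally expressed fusions sorted by FACS into six bins by GFP to DsRed ratio, PSI derived from sequencing read proportions per bin multiplied by bin number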
Conditions: c terminus: a fixed tail appended
// keep it numeric: no unit symbol after the value

Recorded protein stability index for F1E , please?
5.47

Repeat with V16N
3.31

Continuing:
Recorded protein stability index for S2W , please?
3.48

Repeat with S14V
2.63

Repeat with P10N
2.64

// provenance: the supplement of paper PMC10567573
